# PROTOCOL DETAILS: Phase I single ascending dose (SAD) study: plasma and urine pharmacokinetics
# Type: in vivo, human
# CONDITION INFO: human, plasma, oral, 120 mg, 120 mg single dose, fasted, plasma; read-out: Vz/F, Mean
MEASURED PARAMETER: Vd/F (L)
Provide the reading as a plain figure in L.

Q. Item under review: CC(=O)c1nn(CC(=O)N2[C@H](C(=O)Nc3nc(Br)ccc3C)C[C@@]3(C)C[C@@H]23)c2ccc(-c3cnc(C)nc3)cc12 [Compound 1] . Reported Vd/F?
A. 1460

###

# PROTOCOL DETAILS: Multiple ascending dose (MAD) study: multiple-dose pharmacokinetics
# Format: in vivo, human
# CONDITION INFO: human, plasma, oral, 200 mg, 200 mg BID, Day 9, 0 hr post-dose (192 h); read-out: Pre-dose (trough) plasma concentration, Mean
MEASURED PARAMETER: concentration at 192 h (ng/mL)
Provide the reading as a plain figure in ng/mL.

Q. Item under review: CC(=O)c1nn(CC(=O)N2[C@H](C(=O)Nc3nc(Br)ccc3C)C[C@@]3(C)C[C@@H]23)c2ccc(-c3cnc(C)nc3)cc12 [Compound 1] . Reported concentration at 192 h?
A. 377
